Each recorded value in this set is attributed to PubChem BioAssay.

- ASSAY_METHOD_TEXT: OD615 S. cerevisiae growth inhibition, permissive medium, pilot counter-assay, permissive growth control for S. cerevisiae lifespan shortening project (AID 705)
- CONDITION_SUMMARY: OD615, 24 h, at 10 µM, stronger effect = higher value
Can you tell me growth inhibition for the items I'm about to list?
Write the value in % as a bare number.

The reported value for CN(C)c1ccc(NC(=O)Cn2c(=O)n(Cc3ccccc3)c(=O)c3ccccc32)cc1 in terms of growth inhibition is -0.65

The reported value for CCCC(=O)Nc1nc2ccc(S(=O)(=O)N3CCCCC3)cc2s1 in terms of growth inhibition is -20.7

The reported value for CCN(CC)c1ccc(CNC23CN4CN(CN(C4)C2)C3)cc1 in terms of growth inhibition is -8.69

The reported value for O=C(Cn1c(=O)oc2cc(S(=O)(=O)N3CCOCC3)ccc21)N1CCc2ccccc2C1 in terms of growth inhibition is -5.1

The reported value for CCCCNC(=O)c1ccc(CS(=O)(=O)c2ccc(OC)cc2)o1 in terms of growth inhibition is -14.2

The reported value for CCn1c(=O)cc(C(=O)OC)sc1=Nc1ccc(F)c(F)c1 in terms of growth inhibition is 1.93

The reported value for Cc1ccc(C)c(Nc2ncnc3nc[nH]c23)c1 in terms of growth inhibition is -3.29

The reported value for CC1(C)SCC2C(=O)N3C(CSC3(C)C)C(=O)N21 (stereo not given) in terms of growth inhibition is 2.82

The reported value for CCOC(=O)c1ccc(N=c2sc(C(=O)OC)cc(=O)n2CCCN2CCOCC2)cc1 in terms of growth inhibition is -4.99

The reported value for CC1=C(C(=O)OC2CCCCCCC2)C(c2ccc(O)cc2)NC(=O)N1 (stereo not given) in terms of growth inhibition is -3.17

The reported value for CCn1c(COc2cccc3cccnc23)nnc1SCC(=O)O in terms of growth inhibition is -4.3

The reported value for Cc1cccc(-n2c(Cc3cc(=O)[nH]c(=O)[nH]3)nnc2SCC(=O)NCC2CCCO2)c1 (stereo not given) in terms of growth inhibition is -2.17

The reported value for O=C(Cn1cnc2c(nnn2-c2ccccc2)c1=O)NCCc1ccccc1 in terms of growth inhibition is -0.435

The reported value for Cc1csc(NC(=O)CNS(=O)(=O)c2cccs2)n1 in terms of growth inhibition is -4.12

The reported value for Cc1nc(SCC(=O)Nc2cccc(Cl)c2)n[nH]1 in terms of growth inhibition is -4.9

The reported value for Cc1ccnc(N2C(=O)c3ccccc3C2Nc2cccc(C)c2C)c1 (stereo not given) in terms of growth inhibition is -14

The reported value for CCOC(=O)N1CCN(S(=O)(=O)c2cc(Br)cc3c2N(C(=O)C2CC2)CC3)CC1 in terms of growth inhibition is -3.63

The reported value for Cc1onc(-c2ccccc2)c1C(=O)Nc1cccc(C#N)c1 in terms of growth inhibition is -20.3

The reported value for C=CCSC1=N/C(=C\c2ccc3c(c2)OCO3)C(=O)S1 in terms of growth inhibition is -6.71

The reported value for CC(C)c1nc(SCC(=O)Nc2ccc3c(c2)OCCO3)c2c(=O)n(C)c(=O)n(C)c2n1 in terms of growth inhibition is 0.9

The reported value for CCCCOC(=O)Nc1ccc(N2CCOCC2)cc1 in terms of growth inhibition is -0.54

The reported value for CCNc1nc(Oc2ccc(C(=O)OCC)cc2)nc(SC)n1 in terms of growth inhibition is -5.11

The reported value for C=COCCn1c(-c2nonc2N)nc2ccccc21 in terms of growth inhibition is -6.54

The reported value for O=C(Cc1ccccc1)n1nc(-c2ccccc2)nc1NCc1ccco1 in terms of growth inhibition is -16.6

The reported value for CCC(C#CCN1CCCCC1)(CC)OCCC#N in terms of growth inhibition is -4.58

The reported value for O=C1CC(N2CCN(Cc3ccc4c(c3)OCO4)CC2)C(=O)N1Cc1ccc(N2CCCC2=O)cc1 (stereo not given) in terms of growth inhibition is -28.2

The reported value for Cc1ccc2nc(NC3=NCN(Cc4ccco4)CN3)nc(C)c2c1 in terms of growth inhibition is -1.68

The reported value for Cc1ccc(S(=O)(=O)c2nc(-c3ccc(F)cc3)oc2SCC(=O)NCC2CCCO2)cc1 (stereo not given) in terms of growth inhibition is 8.03

The reported value for O=C(NC1CCCc2ccccc21)C1CCN(C(=O)c2sccc2-n2cccc2)CC1 (stereo not given) in terms of growth inhibition is -5.99

The reported value for CCCn1c(CNC(=O)Cc2ccccc2)nc2ccccc21 in terms of growth inhibition is 4.79

The reported value for Cc1ccc(C2CC(c3ccccc3C)n3nc(N)nc3N2)cc1 (stereo not given) in terms of growth inhibition is 0.605

The reported value for C(=N\n1cnnc1)/c1ccc(N2CCOCC2)s1 in terms of growth inhibition is -13.4

The reported value for c1coc(CNc2c3c(nc4ncnn24)CCCC3)c1 in terms of growth inhibition is 0.96

The reported value for CC(=O)c1ccc(C(=O)Nc2nnc(-c3ccc(Cl)cc3)o2)cc1 in terms of growth inhibition is -1.45

The reported value for O=C(CSc1oc(-c2ccco2)nc1S(=O)(=O)c1ccc(Cl)cc1)NCC1CCCO1 (stereo not given) in terms of growth inhibition is 1.39

The reported value for CCCNc1nc2c(c(=O)[nH]c(=O)n2C)n1Cc1cccc(Br)c1 in terms of growth inhibition is -4.76

The reported value for CCOc1ccc(-n2c(SCc3ccc(C(=O)OC)o3)nc3c(c2=O)SCC3)cc1 in terms of growth inhibition is -21.2

The reported value for CCC(=NCCc1ccccc1)C1=C(O)CCC1=O in terms of growth inhibition is 3.04

The reported value for Cc1ccc(N(C(=O)c2cccs2)C2C=CS(=O)(=O)C2)cc1 (stereo not given) in terms of growth inhibition is -11.1

The reported value for COc1ccc(OC)c(S(=O)(=O)N2CCCCC2C(=O)N2CCN(c3ccccn3)CC2)c1 (stereo not given) in terms of growth inhibition is 1.82

The reported value for CC(C)Cn1c(CN2C(=O)c3ccccc3C2=O)nc2ccccc2c1=O in terms of growth inhibition is -8.43

The reported value for Cn1c(SCC(=O)Nc2ccc(F)cc2F)nnc1-c1cccnc1 in terms of growth inhibition is -13.9

The reported value for Cc1ccc(S(=O)(=O)N2CCC(C(=O)N[C@@H](C)C(=O)NCC3CCCO3)CC2)cc1 (stereo not given in full) in terms of growth inhibition is -19.6

The reported value for Cc1ccc(-c2nn(C)c(=O)c3ccccc23)cc1CNC(=O)c1ccco1 in terms of growth inhibition is -19.5

The reported value for COc1ccc(C2CC(c3ccc(F)cc3)Nc3nc(N)nn32)cc1 (stereo not given) in terms of growth inhibition is -3.94
